Entries below carry reported IC50 on UniProt:P31749.
Sequence (P31749 whole entry): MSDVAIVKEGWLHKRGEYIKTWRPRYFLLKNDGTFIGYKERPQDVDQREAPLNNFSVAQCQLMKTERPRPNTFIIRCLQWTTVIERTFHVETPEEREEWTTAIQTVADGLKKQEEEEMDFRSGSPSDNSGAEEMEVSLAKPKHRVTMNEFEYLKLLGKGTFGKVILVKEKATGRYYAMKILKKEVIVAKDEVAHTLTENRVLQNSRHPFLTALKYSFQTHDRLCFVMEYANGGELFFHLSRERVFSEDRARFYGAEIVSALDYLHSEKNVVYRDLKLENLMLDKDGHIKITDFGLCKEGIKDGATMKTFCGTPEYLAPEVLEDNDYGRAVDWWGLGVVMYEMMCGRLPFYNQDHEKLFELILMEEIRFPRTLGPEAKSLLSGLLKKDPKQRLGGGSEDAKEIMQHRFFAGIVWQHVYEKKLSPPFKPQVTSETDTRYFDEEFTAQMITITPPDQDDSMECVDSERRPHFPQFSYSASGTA

Below are worked cases with known answers.
[
  {
    "SMILES_ENTRY": "Fc1ccc(-c2cn(CCN3CCC3)c(C3CCN(c4ncnc5c4CCC5)CC3)n2)cc1Cl",
    "IC50": "< 25 nM"
  },
  {
    "SMILES_ENTRY": "Cc1ccc(-c2cn(CCN3CCCC3)c(C3CCN(c4ncnc5c4NC(=O)CN5)CC3)n2)cc1",
    "IC50": "> 1000 nM"
  },
  {
    "SMILES_ENTRY": "O=C1CNc2ncnc(N3CCC(c4nc(-c5cccc(Cl)c5)cn4CCN4CCCC4)CC3)c2N1",
    "IC50": "26 to 100 nM"
  }
]

Alright, here's another compound for you.
Query :: For UniProt:P31749, give IC50 of the listed compound: `O=C1CNc2ncnc(N3CCC(c4nc(-c5ccnc(C(F)(F)F)c5)cn4CCN4CCC4)CC3)c2N1`
Result :: 26 to 100 nM
